Target: refolded pepsin (Rp) (Sus scrofa, UniProt P00791)
Construct: Only the R13 and K36 side-chains of the PS form hydrogen bonds with the mature pepsin domain; purchased Sigma (St. Louis, MO, USA)
Sequence (P00791 60-385): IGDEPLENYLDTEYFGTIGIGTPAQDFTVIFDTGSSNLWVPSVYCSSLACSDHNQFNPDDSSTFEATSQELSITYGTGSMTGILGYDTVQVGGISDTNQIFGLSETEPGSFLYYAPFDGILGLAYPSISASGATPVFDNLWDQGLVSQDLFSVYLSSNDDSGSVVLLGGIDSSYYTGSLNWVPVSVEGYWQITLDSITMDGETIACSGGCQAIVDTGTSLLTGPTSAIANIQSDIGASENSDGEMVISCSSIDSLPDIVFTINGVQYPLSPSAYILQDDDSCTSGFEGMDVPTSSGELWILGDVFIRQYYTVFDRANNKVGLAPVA
Test: PS-catalyzed folding of Rp to Np (recovery of Np activity)
Format: biochemical, porcine
Conditions: 1 µM Rp, 30 µM PS, pH 5.3 (20 mM acetic acid/NaOH, 100 mM NaCl), 15°C; Np activity assayed at pH 1.2, 25°C with KPAEFF(NO2)AL; monoexponential fit; mean ± SD from non-linear curve fitting, 3-5 measurements
Where no end group is shown, it is not given here.
valueType: k f (PS-catalyzed folding rate constant) (min⁻¹)

{"sequenceEntry": "LVKVPLVRKKALRQNLIKNGKLKDFLKTHKHNPASKYFPEAAAL [S11A]", "u": "min⁻¹", "k f (PS-catalyzed folding rate constant)": 0.18}

[1] LVKVPAVRKKSLRQNLIKNGKLKDFLKTHKHNPASKYFPEAAAL [L6A]
[2] LVKVPLVRKKSLRQNLAKNGKLKDFLKTHKHNPASKYFPEAAAL [I17A]
# return whichever of 1 and 2 has the smaller k f (PS-catalyzed folding rate constant) Reply with the label of the item you choose. 1

---

System: pepsin (PS-Rp, PS-TS, PS-Np complexes)
Assay: Φ-value analysis from PS-catalyzed folding and binding constants
Design: species or system porcine
Conditions: ΔΔGPS-Np minus ΔΔGPS-Rp; ± SD by propagation of errors
Where no end group is shown, it is not given here.
valueType: ΔΔGPS(Np-Rp) (change in equilibrium stability of PS-Np relative to PS-Rp) (kcal/mol)

{"sequenceEntry": "LVKVPLVRKKSLRQNLIKNGKLKDALKTHKHNPASKYFPEAAAL [F25A]", "valueObserved": 0.86}

[P] LVKVPLVRKKALRQNLIKNGKLKDFLKTHKHNPASKYFPEAAAL [S11A]
[Q] LVKVPLVRKKSLRQNLAKNGKLKDFLKTHKHNPASKYFPEAAAL [I17A]
[R] LVKAPLVRKKSLRQNLIKNGKLKDFLKTHKHNPASKYFPEAAAL [V4A]
Hi! Can you put these in order of ΔΔGPS(Np-Rp) (change in equilibrium stability of PS-Np relative to PS-Rp), lowest number first? // respond by listing labels in the order requested R, P, Q
(R: -0.93 kcal/mol, P: 0.36 kcal/mol, Q: 1.26 kcal/mol)

---

Molecular target: native pepsin (Np) (Sus scrofa)
Construct: Only the R13 and K36 side-chains of the PS form hydrogen bonds with the mature pepsin domain; purchased Sigma (St. Louis, MO, USA)
Sequence (P00791 60-385): as the sequence (P00791 60-385) above
Experiment: PS binding to Np (competitive inhibition of KPAEFF(NO2)AL hydrolysis)
Format: biochemical, porcine
Conditions: from K i, 20°C, pH 5.3, relative to WT; ± SD by propagation of errors
Where no end group is shown, it is not given here.
valueType: ΔΔGPS-Np (change in PS-Np binding energy upon mutation) (kcal/mol)

Use the examples below as a reference point.
{"sequenceEntry": "LVKVPLVRKKSLAQNLIKNGKLKDFLKTHKHNPASKYFPEAAAL [R13A]", "testedOn": "native pepsin (Np) (Sus scrofa)", "u": "kcal/mol", "valueObserved": 1.03}
{"sequenceEntry": "LVKVPLVRKKSLRQNLAKNGKLKDFLKTHKHNPASKYFPEAAAL [I17A]", "testedOn": "native pepsin (Np) (Sus scrofa)", "u": "kcal/mol", "valueObserved": 1.05}
{"sequenceEntry": "LVKVPLVRKKALRQNLIKNGKLKDFLKTHKHNPASKYFPEAAAL [S11A]", "testedOn": "native pepsin (Np) (Sus scrofa)", "u": "kcal/mol", "valueObserved": 0.83}
{"sequenceEntry": "LVKVPLVRKKSLRQNLIKNGKLKDALKTHKHNPASKYFPEAAAL [F25A]", "testedOn": "native pepsin (Np) (Sus scrofa)", "u": "kcal/mol", "valueObserved": 0.74}

[I] LVKVPAVRKKSLRQNLIKNGKLKDFLKTHKHNPASKYFPEAAAL [L6A]
[II] LVKAPLVRKKSLRQNLIKNGKLKDFLKTHKHNPASKYFPEAAAL [V4A]
[III] LVKVPLVRKKSLRQNLIKNGKLKDFLKTHKHNPASAYFPEAAAL [K36A]
Hi! Can you put these in order of ΔΔGPS-Np (change in PS-Np binding energy upon mutation), lowest number first? // respond by listing labels in the order requested II, III, I
